B1: TPR t1 (parent)
chain: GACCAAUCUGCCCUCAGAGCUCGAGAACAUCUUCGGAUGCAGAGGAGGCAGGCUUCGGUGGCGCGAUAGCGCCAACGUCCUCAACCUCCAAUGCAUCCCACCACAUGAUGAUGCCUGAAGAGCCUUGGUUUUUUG

Variants of: B1
Assay: polymerase ribozyme fitness, log enrichment relative to wild type (log ratio); higher = more active; in vitro selection for triplet polymerase activity
polymerase ribozyme fitness (log ratio) vs -1: at or above is true (1), below is false (0).

1) GAGCAAUCUGCGCUCAGAGCUCGAGAACAUCUUCGGAUGCAGAGGAGGCAGGCUUCGGUGGCGCGAUAGCGCCAACGUCCUCAACCUCCAAUGCAUCCCACCACAUGAUGAUGCCUGAAAAGCCUUGUUUUUUUG    true (1)
2) GACCAAUCUGCCCUCAGAGCUCGAGAACAUCUUCGGAUGCAGAGGAGGCAGGCUUCGGUGGCGCGAUAGCGCCAACGUCCUCAACCUCCAAUGCAUCCCACCACAUGAUGAUGCCUGAAGAGACUUGCUUUUUUG    true (1)
3) GACCAAUCUGCCCUCAGAGCUCGAGAACAUCUUCGGAUGCAGAGGAGGCAGGCGUCGGUGGCGCGAUAGCGCCAACGUCCUAAACCUCCACUGCAUCCCACCACAUGAUGAUGCGUGAAGAGCCUUGGUUUUUUG    false (0)
4) GAUCAAUCUGCCCUCAGAGCUCGAGAACAUCUUCGGAUGCAGAGGAGGCAGGCUUCGGUGGCGCGAUAACGCCAACGUCCUCAACCUCCAAUGCAUCCCACCACAUGAUGAUGCCUGAAGAGCCUUGGUUUUUUG    false (0)
5) GACCAAUCUGCCCUCAGAGCUCGAGAACAUCUUCGGAUGCAGAGGAAGCAGGCUUCGGUGGCGCGAUAGCGCCAACGUUCUCAACCUCCAAUGCAUCCCACCACAUGAUGAUGCCUGAAGAGCCUUGGUUUUUUG    false (0)
6) GACCAAUCUGCCCUCAUAGCUCGAGAUCAUCUUCGGAUGAAGAGGAGGCAGGCUUCGGUGGCGAGAUAGCGCCAACGUCCUCAAACUCCAAUGCAUCCCACCACAUGAUGAUGCCUCAAGAGCCUUAGAUUUUUG    false (0)
7) GACCAAUCUGCCCUCAGAGCUCGAGAACAUCUUCGGAUGCAGAGGCAGCAGGAUUCGGUAGCGCGAUAGCGCGAACGUCCUCAACCUCCAAUGCAUCCCACCACAUGAUGAUGCCUGAAGAGCCUUGGUUUUUUG    false (0)
8) GACCAAUCUGCCCUCAGAGCUCGAGAACAUCUUCGGAUGCAGAUAAGGCAGGCAUCGGUGGCGCGAUAGCGCCAACGUCCUCAACCUCCAAUGCAUCCCACCACAUGAUGAUGCCUGAAGAGCCUUGGUUUUUUG    false (0)
9) GACCAAUCUGCCCUCAGAGCUCGAGAACAUCUUCGGAUGCAGAGGAGGCAGGCUUCGGUGGCGCGAUAGCGCCAACGUCCUCAACCUCCAAUGCAUCCCACCACAUGAUGAUGCCUGAAGAGCGUAGGUUUUUUG    true (1)
10) GACCAAUCUGCCCACAGAGCUCGAGAACAUCUUCGUAUGGAGAGGAGGCAGGCUUAGGUGGCGCGAUAGCGCCAACGUCCUCAGCCUCCAAUGCAUACCACCACAUGAUGAUGCCUGAAGAGCCUUGGUUUUUUG    false (0)
